assayed-system: Ylr278c (UniProt Q05854)
Sequence (Q05854 whole entry): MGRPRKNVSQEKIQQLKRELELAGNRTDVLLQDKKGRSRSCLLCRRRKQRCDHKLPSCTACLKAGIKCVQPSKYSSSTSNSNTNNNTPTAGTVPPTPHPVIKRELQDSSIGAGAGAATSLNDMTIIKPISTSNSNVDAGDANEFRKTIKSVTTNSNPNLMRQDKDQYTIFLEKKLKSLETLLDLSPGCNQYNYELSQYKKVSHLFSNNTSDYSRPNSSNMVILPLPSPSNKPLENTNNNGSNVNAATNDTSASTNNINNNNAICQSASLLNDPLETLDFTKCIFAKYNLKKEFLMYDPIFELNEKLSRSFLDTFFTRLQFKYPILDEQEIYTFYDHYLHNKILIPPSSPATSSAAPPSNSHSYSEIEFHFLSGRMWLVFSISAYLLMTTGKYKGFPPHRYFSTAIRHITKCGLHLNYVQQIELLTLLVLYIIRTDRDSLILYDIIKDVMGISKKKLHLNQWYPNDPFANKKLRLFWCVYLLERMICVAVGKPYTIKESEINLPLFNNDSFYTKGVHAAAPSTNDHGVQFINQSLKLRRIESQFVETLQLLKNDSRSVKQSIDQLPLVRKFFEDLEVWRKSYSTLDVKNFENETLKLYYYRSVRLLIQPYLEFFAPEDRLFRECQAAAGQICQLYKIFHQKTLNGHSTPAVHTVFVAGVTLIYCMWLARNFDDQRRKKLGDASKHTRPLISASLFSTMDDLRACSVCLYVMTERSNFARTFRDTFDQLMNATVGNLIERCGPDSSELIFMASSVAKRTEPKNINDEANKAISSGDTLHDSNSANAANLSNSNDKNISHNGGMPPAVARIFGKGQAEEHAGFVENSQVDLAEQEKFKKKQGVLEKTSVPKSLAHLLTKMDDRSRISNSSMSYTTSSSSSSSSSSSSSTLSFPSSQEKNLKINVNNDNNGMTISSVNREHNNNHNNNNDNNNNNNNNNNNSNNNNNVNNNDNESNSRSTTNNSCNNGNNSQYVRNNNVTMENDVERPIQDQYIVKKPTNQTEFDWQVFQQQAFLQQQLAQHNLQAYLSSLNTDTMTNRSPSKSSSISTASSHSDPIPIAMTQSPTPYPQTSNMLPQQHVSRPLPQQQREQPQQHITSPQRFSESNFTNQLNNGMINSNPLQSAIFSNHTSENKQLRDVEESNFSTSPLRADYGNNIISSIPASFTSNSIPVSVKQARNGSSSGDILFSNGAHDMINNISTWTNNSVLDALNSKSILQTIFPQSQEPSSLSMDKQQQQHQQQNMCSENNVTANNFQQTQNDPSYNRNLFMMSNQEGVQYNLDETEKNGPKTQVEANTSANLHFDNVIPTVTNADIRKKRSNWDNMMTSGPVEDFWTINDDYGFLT
protocol: PBM E-score (8-mer binding enrichment) (E-score (-0.5 to 0.5)); higher = stronger / more preferred TF binding
experimental-setup: protein concentration: 200 nM; construct: GST-DNA-binding domain
Whole data set: some 33,000 sequences, median “E-score (-0.5 to 0.5)” near -0.054, cut for the highest 2% near 0.39. The list comes from a sample in which the highest values are over-represented; it also holds close analogues and randomly drawn sequences.
endpoint-label: PBM E-score
Answer with the value's number alone.

See these solved cases before continuing.
CTTGACAC    -0.193
ACATCAGC    -0.0321
ATATTCCC    0.277
AACACCGG    0.411

Recorded PBM E-score of CAATTCCA , please.
-0.0617
